assaySystem: human urotensin II receptor (Homo sapiens, UniProt Q9UKP6)
Construct: expressed in transfected cells; host or cells: NIH3T3 cells
Sequence (Q9UKP6 whole entry): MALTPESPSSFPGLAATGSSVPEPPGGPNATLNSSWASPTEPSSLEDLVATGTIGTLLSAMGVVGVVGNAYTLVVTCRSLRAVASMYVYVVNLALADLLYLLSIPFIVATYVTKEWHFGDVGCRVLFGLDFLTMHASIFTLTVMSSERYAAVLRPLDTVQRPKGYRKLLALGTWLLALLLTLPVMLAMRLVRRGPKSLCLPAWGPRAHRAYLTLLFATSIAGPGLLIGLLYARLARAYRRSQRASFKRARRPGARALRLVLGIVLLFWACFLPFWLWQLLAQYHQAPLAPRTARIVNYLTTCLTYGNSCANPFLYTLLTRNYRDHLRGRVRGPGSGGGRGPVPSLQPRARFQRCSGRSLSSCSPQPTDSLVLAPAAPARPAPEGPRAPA
protocolSummary: Receptor Selection and Amplification (R-SAT) functional assay, NIH3T3 cells transfected with human urotensin II receptor and β-galactosidase marker
Format: cell-based
measurementContext: Table 4, negative of the log EC50 in molarity, average ± standard deviation of 2-5 determinations, eight doses in triplicate
Experimental: The functional receptor assay, Receptor Selection and Amplification Technology (R-SAT™), was used (with minor modifications from the procedure described previously (Brann, M. R. U.S. Pat. No. 5,707,798, 1998; Chem. Abstr. 1998, 128, 111548) to screen compounds for efficacy at the UII receptor. The RSAT assay was conducted as described herein. […] Results were determined in R-SAT assays and are expressed as pEC50, the negative of the log EC50 in molarity. […]
Where a name gives a salt, the structure may show the parent alone.
measurementName: EC50 (nM)

1. Cc1ccc(C(CCN(C)C)NC(=O)CCc2ccc(C(F)(F)F)cc2)cc1 (centres unmarked) [B5, HCl] :: 2290

(P) COc1ccc(C=CC(=O)NC(CCN(C)C)c2ccc3ccccc3c2)cc1 (centres unmarked) [C9, HCl]
(Q) Cc1ccc(C(CCN(C)C)NC(=O)C#Cc2ccccc2)cc1 (centres unmarked)
(R) CN(C)CCC(NC(=O)CCc1ccccc1)c1ccc(Cl)cc1 (centres unmarked) [A4, HCl]
(S) CN(C)CCC(NC(=O)Cc1ccc(C(F)(F)F)cc1)c1ccc2ccccc2c1 (centres unmarked) [C2, HCl]
Input line: Give the ascending ranking of the items by reported EC50. Answer by naming the labels in the order asked.
Output line: P, S, R, Q

src = patent US20070043104A1
